test: Compound solubility in water
Assign condition met to entries whose solubility meets or exceeds 20 µg/mL; assign condition not met to the rest.

molecule="CCC(C)c1ccc(NC(=O)c2cnc3n(C)ccn3c2=O)cc1 (stereo not shown)" class_assignment="condition not met"
molecule="O=C(NC1CCCc2ccccc21)c1cnc2occn2c1=O (stereo not shown)" class_assignment="condition met"
molecule=C#Cc1ccc(NC(=O)c2cnc3occn3c2=O)cc1 class_assignment="condition not met"
molecule=CN1Cc2ccc(NC(=O)c3cnc4occn4c3=O)cc2C1 class_assignment="condition not met"
molecule="O=C(NC1CCC(c2ccccc2)CC1)c1cnc2occn2c1=O (stereo not shown)" class_assignment="condition met"
molecule=O=C(Nc1ccc2c(c1)OCCO2)c1cnc2occn2c1=O class_assignment="condition not met"
molecule="O=C(NC1CCc2ccccc2C1)c1cnc2occn2c1=O (stereo not shown)" class_assignment="condition met"
molecule=C[C@@H](NC(=O)c1cnc2occn2c1=O)c1ccccc1 class_assignment="condition met"
molecule="CCC(C)c1ccc(NC(=O)c2cnc3occn3c2=O)cc1 (stereo not shown)" class_assignment="condition not met"
molecule=CCN1CCN(c2ccc(NC(=O)c3cnc4occn4c3=O)cc2)CC1 class_assignment="condition met"
molecule="CCC(C)c1ccc(NC(=O)c2cnc3[nH]ccn3c2=O)cc1 (stereo not shown)" class_assignment="condition not met"
molecule="O=C(NC1CCc2ccccc21)c1cnc2occn2c1=O (stereo not shown)" class_assignment="condition met"
molecule=O=C(Nc1ccc(N2CCCCC2)cc1)c1cnc2occn2c1=O class_assignment="condition not met"
